The reported measurements were obtained from paper PMC8539310.

- Target: HIV-1 IN in the presence of LEDGF/p75 (Human immunodeficiency virus type 1 group M subtype B, UniProt P04585)
- Construct: Recombinant IN and LEDGF/p75 proteins were expressed and purified
- Protocol text: HTRF IN LEDGF-dependent assay
- Assay setup: pure compounds; in the presence of LEDGF; read-out: HIV-1 Integrase LEDGF-Dependent IC50
Measurement label: IC50 (µM)
Lab book: enter the figure in µM, no units written.

Molecule	Data value
O=c1cc(-c2ccc(O)c(O)c2)oc2cc(O)cc(O)c12 [Luteolin]	6.5

Quick check: IC50 of O=c1cc(-c2ccc(O)cc2)oc2cc(O)cc(O)c12 [Apigenin] ?
22

----------
Each record here notes measured remaining activity at 100 µM.
- Target: HIV-1 IN in the presence of LEDGF/p75 (Human immunodeficiency virus type 1 group M subtype B, UniProt P04585)
- Construct: Recombinant IN and LEDGF/p75 proteins were expressed and purified; made in house
- Protocol text: HTRF IN LEDGF-dependent assay
- Assay type: biochemical
- Assay setup: at 100 µM; read-out: Percentage of control IN LEDGF-dependent activity in the presence of the indicated drug concentration
Give the value, in units of %, as a plain number.

Could you share which remaining activity at 100 µM value was measured for O=c1cc(-c2ccc(O[C@@H]3O[C@H](CO)[C@@H](O)[C@H](O)[C@H]3O)c(O)c2)oc2cc(O)cc(O)c12 [Luteolin 4′-O-glucoside] ?
100

What does the data say about its remaining activity at 100 µM? Entry: O=c1cc(-c2ccc(O)cc2)oc2cc(O[C@@H]3O[C@H](CO)[C@@H](O)[C@H](O)[C@H]3O)cc(O)c12 [Apigenin 7-O-glucoside]
100

Which remaining activity at 100 µM reading was recorded for the molecule CC1(C)CC[C@]2(C(=O)O)CC[C@]3(C)C(=CC[C@@H]4[C@@]5(C)CC[C@H](O)C(C)(C)[C@@H]5CC[C@]43C)[C@@H]2C1 ?
74

What value of measured remaining activity at 100 µM is listed for C[C@H]1[C@H](C)CC[C@]2(C(=O)O)CC[C@]3(C)C(=CC[C@@H]4[C@@]5(C)CC[C@H](O)C(C)(C)[C@@H]5CC[C@]43C)[C@H]12 ?
68

----------
- Target: HIV-1 RT-associated RNase H (Human immunodeficiency virus type 1 group M subtype B, UniProt P04585)
- Construct: HIV-1 group M subtype B heterodimeric RT
- Protocol text: RNase H polymerase independent cleavage assay
- Assay setup: pure compounds
pIC50: −log10 of the molar value.
Hi, to clarify the labels: Criterion met covers pIC50 from 5 upward, Criterion not met covers anything below 5.

Use these answered entries as a reference point.
Molecule	Cat
O=c1cc(-c2ccc(O)cc2)oc2cc(O)cc(O)c12 [Apigenin]	Criterion not met
O=c1oc2c(O)c(O)cc3c(=O)oc4c(O)c(O)cc1c4c23 [Ellagic acid]	Criterion met
CC1(C)CC[C@]2(C(=O)O)CC[C@]3(C)C(=CC[C@@H]4[C@@]5(C)CC[C@H](O)C(C)(C)[C@@H]5CC[C@]43C)[C@@H]2C1 [Oleanolic acid]	Criterion met
O=c1cc(-c2ccc(O[C@@H]3O[C@H](CO)[C@@H](O)[C@H](O)[C@H]3O)c(O)c2)oc2cc(O)cc(O)c12 [Luteolin 4′-O-glucoside]	Criterion not met
C[C@H]1[C@H](C)CC[C@]2(C(=O)O)CC[C@]3(C)C(=CC[C@@H]4[C@@]5(C)CC[C@H](O)C(C)(C)[C@@H]5CC[C@]43C)[C@H]12 [Ursolic acid]	Criterion met

Hi team, for O=c1cc(-c2ccc(O)cc2)oc2cc(O[C@@H]3O[C@H](CO)[C@@H](O)[C@H](O)[C@H]3O)cc(O)c12 [Apigenin 7-O-glucoside] , is the recorded pIC50 at or above 5?
Criterion not met

Please indicate if the recorded pIC50 for C=C(C)[C@@H]1CC[C@]2(C(=O)O)CC[C@]3(C)[C@H](CC[C@@H]4[C@@]5(C)CC[C@H](O)C(C)(C)[C@@H]5CC[C@]43C)[C@@H]12 [Betulinic acid] meets or exceeds 5.
Criterion met

Could you tell me if the measured pIC50 of O=c1cc(-c2ccc(O)c(O)c2)oc2cc(O)cc(O)c12 [Luteolin] reaches 5 or more?
Criterion met
